# System: COLO 205 colon
# Test Details: NCI-60 one-dose screen, 48 h (100 = growth as untreated, 0 = no growth, -100 = all killed)
# Measurement Context: 10 µM unless noted
The panel holds about 83,000 compounds, 20% with a hit somewhere; the sample as a whole holds those more often.
Answer false (0) if growth is under 80%, and true (1) if it is 80% or more.

Answered cases to consult:
| Compound | Test System | Assigned Label |
| --- | --- | --- |
| COc1ccc(/C=c2/c(=O)[nH]c3nc4sc(C)c(C)c4c(=O)n23)cc1 | COLO 205 colon | true (1) |
| CCCCCCCCCCCCCCCCCCNC(=O)[C@H]1CSC(c2ccc(OC)c(F)c2)N1 (stereo not given in full) | COLO 205 colon | true (1) |

Exercise: Could you please find out whether `C=C(CN1CCN(c2cccc(C(F)(F)F)n2)CC1)c1ccc(C(=O)Nc2ccccc2N)cc1` has growth that meets 80% or exceeds it?
Key: false (0)

Exercise: Also, `c1ccc(Sc2ncnc3ccccc23)cc1` please.
Key: true (1)

----------
# Tested on: HOP-92 NSCLC
# Test Details: NCI-60 one-dose screen, 48 h (100 = growth as untreated, 0 = no growth, -100 = all killed)
# Measurement Context: 10 µM unless noted
This is part of a sample that, as a whole, favours compounds with a hit. Of some 83,000 tested, about 20% had one in any assay.
Category | rule: reported growth within range, see lower segment: < 50%; middle segment: ≥ 50% and < 80%; upper segment: ≥ 80%

Answered cases to consult:
| Molecule | Assigned Label |
| --- | --- |
| O=C1CC(c2nc3ccccc3[nH]2)CN1C1CCCCC1 (configuration not stated) | upper segment |
| Nc1cc2ccncc2c2ccccc12 | middle segment |
| CCOC(=O)c1c2c(n3ccc(NC(=O)CCN4CCOCC4)cc13)C(=O)c1ncccc1C2=O | lower segment |
| CCCCCCCCOC(=O)CC[C@@H](C)[C@H]1CC[C@H]2[C@@H]3[C@H](OC(=O)CCN)C[C@@H]4C[C@H](OC(=O)CCN)CC[C@]4(C)[C@H]3C[C@H](OC(=O)CCN)[C@]12C | lower segment |
| COc1cc(-c2c3sc(=O)[nH]c3nc3c2c(=O)[nH]n3C(C)C)cc2c1OCO2 | upper segment |

Exercise: Hi there! Could you help me figure out the category for `Nc1ccc(Nc2nccc(-c3ccc4ccccc4c3)n2)cc1` please?
Key: middle segment

Exercise: Also, N#CC1=C(N)Oc2c(ccc3ccccc23)C1c1cccs1 (configuration not stated) please.
Key: lower segment

Exercise: Also, `Cc1cc(Nc2nc(N3CCN(C)CC3)nc3ccccc23)n[nH]1` please.
Key: middle segment

Exercise: Also, `CN1CCN(Cc2ccc(NC(=O)c3cncc(C#Cc4cnc(N)c5cccnc45)c3)cc2C(F)(F)F)CC1` please.
Key: lower segment

Exercise: Also, `COc1ccc(C/C(C)=C(\c2ccc(OCCN3CCCCCC3)cc2)c2ccc(OC(=O)C3CCCCC3)cc2)cc1` please.
Key: lower segment

Exercise: Also, `CCn1cc2c(cc1=O)-c1nc3ccccc3c3ccnc(c13)C2=O` please.
Key: middle segment

Exercise: Also, `COc1cc2c(=O)n(CC3CCCCC3)c3c4cc[nH]c4ncc3c2cc1OC` please.
Key: lower segment
